We begin with a simple list: items and their reported ED50.
Tested on: Rattus norvegicus
Assay: The compound was evaluated in vivo for the 5-HTP accumulation at corpus striatum
Type: functional
Report as a plain number; the unit µmol/kg is understood.

// known answers, use as guide
Which value of ED50 has been reported for CCCN1CC[C@H]2c3c(ccc4ccoc34)CC[C@H]21 in the records?
0.4

Which ED50 reading was recorded for the compound CCCN(CCC)C1CCc2ccc3occc3c2C1 (centres undefined) ?
2.12

State the recorded ED50 for this entry: CCCN(CCC)C1CCc2cccc(O)c2C1 (centres undefined) [8-OH-DPAT]
0.063

Here's the next entry for you.
For the compound shown here, CCCN(CCC)C1CCc2ccc3ccoc3c2C1 (centres undefined) , give the reported ED50.
3.18

====

Molecular target: D(3) dopamine receptor (Homo sapiens)
Sequence (P35462 whole entry): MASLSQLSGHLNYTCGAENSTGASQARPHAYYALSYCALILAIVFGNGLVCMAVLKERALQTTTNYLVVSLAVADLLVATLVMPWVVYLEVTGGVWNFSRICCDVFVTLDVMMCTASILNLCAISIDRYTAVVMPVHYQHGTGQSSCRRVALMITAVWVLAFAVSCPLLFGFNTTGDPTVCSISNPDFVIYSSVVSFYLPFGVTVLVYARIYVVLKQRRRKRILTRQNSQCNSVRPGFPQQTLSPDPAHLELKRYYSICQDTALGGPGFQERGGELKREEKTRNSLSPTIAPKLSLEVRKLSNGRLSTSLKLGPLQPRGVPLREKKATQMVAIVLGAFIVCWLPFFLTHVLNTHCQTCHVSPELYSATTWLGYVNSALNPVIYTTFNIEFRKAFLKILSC
REPORTED PROPERTY: pKi
Hey, just a heads up that pKi is the negative log base 10 of the concentration in molar.

Quick check: pKi on D(3) dopamine receptor (Homo sapiens), item CCCN1CC[C@H]2c3c(ccc4ccoc34)CC[C@H]21 ?
6.49

Give recorded pKi with D(3) dopamine receptor (Homo sapiens) for the following molecule: CCCN(CCC)C1CCc2ccc3occc3c2C1 (stereo unspecified)
7.35

Form: Entry = CCCN(CCC)C1CCc2c(ccc3ccoc23)C1 (stereo unspecified) | System = D(3) dopamine receptor (Homo sapiens) | pKi = ____
7.25

Param readout= pKi; system= D(3) dopamine receptor (Homo sapiens); entry= CCCN(CCC)C1CCc2ccc3ccoc3c2C1 (stereo unspecified) ; returns value.
7.79

Record CCCN(CCC)[C@@H]1CCc2c(ccc3ccoc23)[C@@H]1C : what is its pKi with D(3) dopamine receptor (Homo sapiens)?
7.57

====

System: Rattus norvegicus
Test: The compound was evaluated in vivo for the 5-HTP accumulation at hemispheres in reserpine pretreated rats
Assay type: functional
Measured ED50 of individual entries
# unit: µmol/kg | format: bare number

Give its ED50 value. Item: CCCN1CC[C@H]2c3c(ccc4ccoc34)CC[C@H]21
0.66

***
Which ED50 is listed for CCCN(CCC)C1CCc2ccc3occc3c2C1 (centres undefined) ?
6.08

Report ED50 for CCCN(CCC)C1CCc2cccc(O)c2C1 (centres undefined) please.
0.052

So what does the record say about ED50 for CCCN(CCC)C1CCc2ccc3ccoc3c2C1 (centres undefined) ?
2.26

====

Target: D(4) dopamine receptor (Homo sapiens)
Sequence (P21917 whole entry): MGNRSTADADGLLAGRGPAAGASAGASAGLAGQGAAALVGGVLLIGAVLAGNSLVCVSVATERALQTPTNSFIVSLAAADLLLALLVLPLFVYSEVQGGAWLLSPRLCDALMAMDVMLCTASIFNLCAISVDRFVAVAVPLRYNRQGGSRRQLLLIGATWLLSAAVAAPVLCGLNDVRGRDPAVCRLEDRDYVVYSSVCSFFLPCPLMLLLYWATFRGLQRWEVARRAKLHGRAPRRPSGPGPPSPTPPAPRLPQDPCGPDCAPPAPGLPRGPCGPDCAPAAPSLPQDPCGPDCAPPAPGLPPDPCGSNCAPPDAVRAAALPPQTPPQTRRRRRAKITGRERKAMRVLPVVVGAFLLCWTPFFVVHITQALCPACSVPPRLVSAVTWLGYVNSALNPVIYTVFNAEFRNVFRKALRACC
Assay: Tested in vitro for the inhibition of [3H]spiperone binding to Dopamine receptor D4, expressed in cloned CHO cells
Format: cell-based
pKi overview
Formally, pKi is defined as -log10 of the concentration c, with c in mol/L.

Test system D(4) dopamine receptor (Homo sapiens); read-out pKi; what value for CCCN(CCC)[C@@H]1CCc2c(ccc3ccoc23)[C@@H]1C ?
7.26

Continue with the molecule presented below.
Form: Entry = CCCN(CCC)C1CCc2ccc(O)cc2C1 (stereo not given) | System = D(4) dopamine receptor (Homo sapiens) | pKi = ____
6.83

====

Reported Ki values are given for each entry in this list.
Molecular target: D(4) dopamine receptor (Homo sapiens)
Assay: Tested in vitro for the inhibition of [3H]spiperone binding to Dopamine receptor D4, expressed in cloned CHO cells
Format: cell-based

Param readout= Ki; system= D(4) dopamine receptor (Homo sapiens); entry= CCCN1CC[C@H]2c3c(ccc4ccoc34)CC[C@H]21 ; returns value.
> 4.07 µM

Query for D(4) dopamine receptor (Homo sapiens): what Ki does the record show for CCCN(CCC)C1CCc2cccc(O)c2C1 (stereo not drawn) ?
> 1.52 µM

Form field - read-out: Ki; system: D(4) dopamine receptor (Homo sapiens); submitted item: CCCN1CC[C@H]2c3c(O)cccc3CC[C@H]21
> 4.07 µM
